biological target: PHKG1 (Homo sapiens, UniProt Q16816); construct: purchased DiscoverX Corp. (ScanMAX Kinase analysis panel, service); assay: ScanMAX Kinase analysis panel, PHKG1; assay type: binding; conditions: 1 μM in DMSO; <35% considered inhibitory; read-out: percent control (% control), PHKG1
Sequence (Q16816 whole entry): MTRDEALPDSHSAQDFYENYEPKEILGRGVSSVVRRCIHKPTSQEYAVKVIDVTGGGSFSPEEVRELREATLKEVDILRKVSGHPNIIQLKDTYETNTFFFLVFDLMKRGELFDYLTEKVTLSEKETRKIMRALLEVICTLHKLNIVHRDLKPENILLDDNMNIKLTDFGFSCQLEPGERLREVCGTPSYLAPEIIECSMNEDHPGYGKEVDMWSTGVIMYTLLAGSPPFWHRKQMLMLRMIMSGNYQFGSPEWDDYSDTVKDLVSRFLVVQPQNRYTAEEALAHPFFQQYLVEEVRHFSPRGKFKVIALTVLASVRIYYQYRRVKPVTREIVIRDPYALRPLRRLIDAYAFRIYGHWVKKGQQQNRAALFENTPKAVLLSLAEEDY
reportedMetric: remaining binding at 1 µM (%)

Answered cases to consult:
{"compound": "CNc1nc(Nc2ccc(C(=O)N3CCC(N4CCOCC4)CC3)c3c2OCCO3)nc2[nH]cc(C(F)(F)F)c12 [Example 238]", "assayTarget": "PHKG1 (Homo sapiens, UniProt Q16816)", "unitOfMeasurement": "%", "remaining binding at 1 µM": 3.6}
{"compound": "C=CCNc1nc(Nc2ccc(S(=O)(=O)N3CCC(N4CCOCC4)CC3)cc2OC)nc2[nH]cc(C#N)c12 [Example 361]", "assayTarget": "PHKG1 (Homo sapiens, UniProt Q16816)", "unitOfMeasurement": "%", "remaining binding at 1 µM": 9.7}
{"compound": "O=C(c1ccc(Nc2nc(C3CC3)c3c(C(F)(F)F)c[nH]c3n2)c2c1OCCO2)N1CCC(N2CCOCC2)CC1 [Example 228]", "assayTarget": "PHKG1 (Homo sapiens, UniProt Q16816)", "unitOfMeasurement": "%", "remaining binding at 1 µM": 30}
{"compound": "CCCNc1nc(Nc2ccc(S(=O)(=O)N3CCC(N4CCOCC4)CC3)cc2OC)nc2[nH]cc(C(F)(F)F)c12 [Example 161]", "assayTarget": "PHKG1 (Homo sapiens, UniProt Q16816)", "unitOfMeasurement": "%", "remaining binding at 1 µM": 24}

1. CCNc1nc(Nc2ccc(S(=O)(=O)N3CCC(N4CCOCC4)CC3)cc2OC)nc2[nH]cc(C(F)(F)F)c12 [Example 158, 2,2,2-trifluoroacetate]
2. CNc1nc(Nc2ccc(S(=O)(=O)N3CCC(N4CCOCC4)CC3)cc2OC)nc2[nH]cc(C(F)(F)F)c12 [Example 157, 2,2,2-trifluoroacetate]
3. CNc1nc(Nc2ccc(P3(=O)CCN(C4CC4)CC3)cc2OC)nc2[nH]cc(C(F)(F)F)c12 [Example 411]
Task: # rank_down: sort by remaining binding at 1 µM, max first // list labels; follow requested order
Result: 1, 3, 2
